# System: S. mutans wild-type UA159
# MEASUREMENT_DESCRIPTION: S. mutans competence assay (genetic transformation with plasmid pDL289)
# Format: cell-based, Streptococcus mutans
# EXPERIMENTAL_CONTEXT: 5 μg/ml of peptide analog; compared with natural transformation without exogenous CSP; 'no effect' = no significant difference by comparison with CSP
ENDPOINT: Transformation efficiency (vs no CSP)

substance="C1: S. mutans CSP analog, 3rd residue removed from N′ (SGSLSTFFRLFNRSFTQAGK; G1 peptide analog)" assay_target="S. mutans wild-type UA159" endpoint_value="no effect"
substance="B1: S. mutans CSP analog, 2nd residue removed from N′ (SGSLSTFFRLFNRSFTQALK; F1 peptide analog)" assay_target="S. mutans wild-type UA159" endpoint_value="no effect"
substance="IH-2: S. mutans CSP analog, 1st residue removed from C′ (SGSLTFFRLFNRSFTQALGK; E1 peptide analog)" assay_target="S. mutans wild-type UA159" endpoint_value="no effect"

Measured values drawn from patent US7556807B2 for this set.
